List of Minimum inhibitory concentration values.
# Tested on: Candida albicans clinical strains
# Assay Comment: MIC, clinical yeast strains
# Assay type: cell-based
# Design: unit: μg/ml
# Test Conditions: Candida albicans clinical yeast strain 4
Square brackets hold non-standard residues; d marks the D form. Peptide text beside a SMILES is read from it.
Quick one: just the number, no unit, thanks!

Examples with their reported Minimum inhibitory concentration follow.
{"columns": ["Compound", "Target Or Test System", "Minimum inhibitory concentration"],
 "data": [
  ["CC[C@@H](C)[C@@H](NC(=O)[C@@H](CC(C)C)NC(=O)[C@@H](CCCNC(=N)N)NC(=O)[C@H](N)CCCNC(=N)N)C(=O)N[C@H](Cc1c[nH]c2ccccc12)C(=O)N[C@H](CCCNC(=N)N)C(=O)N[C@H](CCCNC(=N)N)C(=O)N[C@H](Cc1ccccc1)C(=O)N[C@H](CCCCN)C(=O)N[C@H](Cc1c[nH]c2ccccc12)C(=O)N[C@H](CC(C)C)C(=O)N[C@H](CCCNC(=N)N)C(=O)O [Chain204D] (H-[dR][dR][dL][dI][dW][dR][dR][dF][dK][dW][dL][dR]-OH)", "Candida albicans clinical strains", 8],
  ["CC(C)C[C@@H](NC(=O)[C@H](N)CCCNC(=N)N)C(=O)N[C@H](CCCCN)C(=O)N[C@H](Cc1c[nH]c2ccccc12)C(=O)N[C@H](Cc1ccccc1)C(=O)N[C@H](Cc1c[nH]c2ccccc12)C(=O)N[C@H](CC(C)C)C(=O)N[C@H](Cc1ccccc1)C(=O)N[C@H](CCCNC(=N)N)C(=O)N[C@H](CCCCN)C(=O)N[C@H](CCCNC(=N)N)C(=O)O [Chain307D] (H-[dR][dL][dK][dW][dF][dW][dL][dF][dR][dK][dR]-OH)", "Candida albicans clinical strains", 16],
  ["CC(C)C[C@@H](NC(=O)[C@@H](Cc1c[nH]c2ccccc12)NC(=O)[C@@H](Cc1ccccc1)NC(=O)[C@@H](Cc1c[nH]c2ccccc12)NC(=O)[C@@H](CCCCN)NC(=O)[C@@H](CCCNC(=N)N)NC(=O)[C@H](N)Cc1c[nH]c2ccccc12)C(=O)N[C@H](Cc1ccccc1)C(=O)N[C@H](CCCCN)C(=O)N[C@H](CCCCN)C(=O)N[C@H](CCCNC(=N)N)C(=O)O [Chain309D] (H-[dW][dR][dK][dW][dF][dW][dL][dF][dK][dK][dR]-OH)", "Candida albicans clinical strains", 16]
]}

# evaluate next
stdin: Give Minimum inhibitory concentration for CC[C@@H](C)[C@@H](N)C(=O)N[C@H](Cc1c[nH]c2ccccc12)C(=O)N[C@H](CCCCN)C(=O)N[C@H](CCCNC(=N)N)C(=O)N[C@H](Cc1ccccc1)C(=O)N[C@H](CCCNC(=N)N)C(=O)N[C@H](CC(C)C)C(=O)N[C@H](Cc1ccccc1)C(=O)N[C@H](CCCCN)C(=O)N[C@H](CCCCN)C(=O)N[C@H](Cc1c[nH]c2ccccc12)C(=O)O [Chain304D] (H-[dI][dW][dK][dR][dF][dR][dL][dF][dK][dK][dW]-OH) tested on Candida albicans clinical strains.
stdout: 16

* * *

# System: Streptococcus pneumoniae clinical strains
# Type: cell-based
# Set-up: unit: μg/ml
# Test Conditions: Streptococcus pneumoniae clinical strain 5; microdilution, Muller Hinton broth-cation adjusted, 0.02% BSA, 0.2% acetic acid
Square brackets hold non-standard residues; d marks the D form. Peptide text beside a SMILES is read from it.
Parameter: Minimum inhibitory concentration

{"columns": ["Compound", "Target Or Test System", "Minimum inhibitory concentration"],
 "data": [
  ["CC(C)C[C@@H](NC(=O)[C@H](N)CCCCN)C(=O)N[C@H](CCCCN)C(=O)N[C@H](Cc1c[nH]c2ccccc12)C(=O)N[C@H](Cc1ccccc1)C(=O)N[C@H](Cc1c[nH]c2ccccc12)C(=O)N[C@H](CC(C)C)C(=O)N[C@H](Cc1ccccc1)C(=O)N[C@H](CCCCN)C(=O)N[C@H](CCCCN)C(=O)N[C@H](CCCNC(=N)N)C(=O)O [Chain311D] (H-[dK][dL][dK][dW][dF][dW][dL][dF][dK][dK][dR]-OH)", "Streptococcus pneumoniae clinical strains", 8],
  ["CC(C)C[C@@H](NC(=O)[C@@H](Cc1c[nH]c2ccccc12)NC(=O)[C@@H](Cc1ccccc1)NC(=O)[C@@H](Cc1c[nH]c2ccccc12)NC(=O)[C@@H](CCCCN)NC(=O)[C@@H](CCCNC(=N)N)NC(=O)[C@H](N)Cc1c[nH]c2ccccc12)C(=O)N[C@H](Cc1ccccc1)C(=O)N[C@H](CCCCN)C(=O)N[C@H](CCCCN)C(=O)N[C@H](CCCNC(=N)N)C(=O)O [Chain309D] (H-[dW][dR][dK][dW][dF][dW][dL][dF][dK][dK][dR]-OH)", "Streptococcus pneumoniae clinical strains", 64],
  ["CC[C@@H](C)[C@@H](NC(=O)[C@@H](CC(C)C)NC(=O)[C@@H](CCCNC(=N)N)NC(=O)[C@H](N)CCCNC(=N)N)C(=O)N[C@H](Cc1c[nH]c2ccccc12)C(=O)N[C@H](CCCNC(=N)N)C(=O)N[C@H](CCCNC(=N)N)C(=O)N[C@H](Cc1ccccc1)C(=O)N[C@H](CCCCN)C(=O)N[C@H](Cc1c[nH]c2ccccc12)C(=O)N[C@H](CC(C)C)C(=O)N[C@H](CCCNC(=N)N)C(=O)O [Chain204D] (H-[dR][dR][dL][dI][dW][dR][dR][dF][dK][dW][dL][dR]-OH)", "Streptococcus pneumoniae clinical strains", 4],
  ["CC(C)C[C@@H](NC(=O)[C@H](N)CCCNC(=N)N)C(=O)N[C@H](CCCCN)C(=O)N[C@H](CCCNC(=N)N)C(=O)N[C@H](Cc1c[nH]c2ccccc12)C(=O)N[C@H](CCCNC(=N)N)C(=O)N[C@H](CC(C)C)C(=O)N[C@H](Cc1ccccc1)C(=O)N[C@H](CCCNC(=N)N)C(=O)N[C@H](CCCCN)C(=O)N[C@H](CCCNC(=N)N)C(=O)O [Chain306D] (H-[dR][dL][dK][dR][dW][dR][dL][dF][dR][dK][dR]-OH)", "Streptococcus pneumoniae clinical strains", 64],
  ["CC(C)C[C@@H](NC(=O)[C@H](N)CCCNC(=N)N)C(=O)N[C@H](CCCCN)C(=O)N[C@H](Cc1c[nH]c2ccccc12)C(=O)N[C@H](Cc1ccccc1)C(=O)N[C@H](Cc1c[nH]c2ccccc12)C(=O)N[C@H](CC(C)C)C(=O)N[C@H](Cc1ccccc1)C(=O)N[C@H](CCCNC(=N)N)C(=O)N[C@H](CCCCN)C(=O)N[C@H](CCCNC(=N)N)C(=O)O [Chain307D] (H-[dR][dL][dK][dW][dF][dW][dL][dF][dR][dK][dR]-OH)", "Streptococcus pneumoniae clinical strains", 2]
]}

Query compound follows.
stdin: Given CC[C@@H](C)[C@@H](NC(=O)[C@@H](Cc1c[nH]c2ccccc12)NC(=O)[C@H](N)CCCCN)C(=O)N[C@@H](C(=O)N[C@H](Cc1c[nH]c2ccccc12)C(=O)N[C@H](CCCNC(=N)N)C(=O)N[C@H](Cc1c[nH]c2ccccc12)C(=O)N[C@H](CCCNC(=N)N)C(=O)N[C@H](Cc1ccccc1)C(=O)N[C@H](CCCCN)C(=O)N[C@H](CCCNC(=N)N)C(=O)O)C(C)C [Chain201D] (H-[dK][dW][dI][dV][dW][dR][dW][dR][dF][dK][dR]-OH) , respond with its Minimum inhibitory concentration.
stdout: 4
